Property: glass transition temperature; scope: individual molecules
Enter your answer as a number in °C; do not include the unit.

Examples with their reported glass transition temperature follow.
State, in one line, measured glass transition temperature of *CC(*)c1ccccc1C(=O)OCC (repeat unit) 118.00

Please supply the value of reported glass transition temperature for the item *CC(*)c1cc(Br)ccc1OCC (repeat unit) 80.00

Now, please, on to the next molecule.
Report glass transition temperature, nothing else, for this molecule: *c1ccc(Oc2ccc(P(=O)(c3ccccc3)c3ccc(Oc4ccc(-c5ccc(*)nc5)cc4)cc3)cc2)cc1 (repeat unit) 257.00

###

Decide by glass transition temperature: equal to or exceeding 200 °C means YES, less means NO.

glass transition temperature >= 200 °C for *c1ccc2oc3ccc(S(=O)(=O)c4ccc(Oc5ccc(S(*)(=O)=O)cc5)cc4)cc3c2c1 (repeat unit) ? YES

Reported glass transition temperature at or above 200 °C? *O[Si](*)(C)CCC(F)(F)F (repeat unit) NO

Check the entry *CC(*)C(=O)c1ccc(C(C)C)cc1 (repeat unit) : does glass transition temperature equal or exceed 200 °C? NO

Entry *CCNC(=O)c1ccc(O*)cc1 (repeat unit) : is its glass transition temperature no less than 200 °C? NO

Consider the additional compound presented here.
Reported glass transition temperature reaches at least 200 °C for *c1ccc(*)s1 (repeat unit) ? NO
